Values were extracted from the Immune Epitope Database (IEDB).

Target: HLA-A*68:02
Assay: IEDB peptide-MHC binding, purified MHC/direct/fluorescence; filed as Kd, often an IC50 or EC50 that approximates it; bounds were set here for any values at or beyond the usual limits of such assays
Conditions: source organism: Camelpox virus M-96
attributeMeasured: Kd

FYLFTFTIY :: ≥ 20 µM

Here is the next item to consider.
In: Please look up its Kd: SHEQGDIAL
Out: ≥ 20 µM

----------
Molecular target: HLA-A*24:03
Assay: IEDB peptide-MHC binding, purified MHC/direct/fluorescence; filed as Kd, often an IC50 or EC50 that approximates it; bounds were set here for any values at or beyond the usual limits of such assays
Conditions: source organism: Orthohantavirus tulaense
attributeMeasured: Kd

In: Please look up its Kd: AESICSYWL
Out: ≥ 20 µM

----------
Target: HLA-B*48:01
Experiment: IEDB peptide-MHC binding, purified MHC/direct/fluorescence; filed as Kd, often an IC50 or EC50 that approximates it; bounds were set here for any values at or beyond the usual limits of such assays
Details: source organism: Vibrio cholerae
pKd: −log10 of the molar value.
attributeMeasured: pKd

In: Please look up its pKd: VLKLRFWLI
Out: ≤ 4.70

----------
Target: HLA-A*29:02
Test: IEDB peptide-MHC binding, purified MHC/competitive/fluorescence; filed as Kd, often an IC50 or EC50 that approximates it; bounds were set here for any values at or beyond the usual limits of such assays
Details: source organism: Campylobacter jejuni
attributeMeasured: Kd (µM)
Answers are plain numbers, in µM.

In: Please look up its Kd: LNRPDIGLY
Out: 0.306

----------
Molecular target: HLA-A*02:12
Test: IEDB peptide-MHC binding, purified MHC/competitive/fluorescence; filed as Kd, often an IC50 or EC50 that approximates it; bounds were set here for any values at or beyond the usual limits of such assays
Details: source organism: Yersinia mollaretii ATCC 43969
pKd: −log10 of the molar value.
attributeMeasured: pKd

In: Please look up its pKd: DEQEFFYSQ
Out: ≤ 4.70

----------
Biological target: HLA-B*44:02
Assay: IEDB peptide-MHC binding, purified MHC/competitive/radioactivity; filed as Kd, often an IC50 or EC50 that approximates it; bounds were set here for any values at or beyond the usual limits of such assays
Settings: source organism: Mammarenavirus juninense
attributeMeasured: pKd
Give bare numbers, as −log10 of the molar value.

In: Please look up its pKd: DELGNILSVY
Out: 5.13

----------
Target: HLA-B*46:01
Assay: IEDB peptide-MHC binding, purified MHC/direct/fluorescence; filed as Kd, often an IC50 or EC50 that approximates it; bounds were set here for any values at or beyond the usual limits of such assays
Conditions: source organism: Mammarenavirus lassaense
attributeMeasured: Kd

KQFKQDAKY :: ≥ 20 µM

Here is the next item to consider.
In: Can you look up Kd on HLA-B*46:01 for QLDQRRALL ?
Out: ≥ 20 µM

----------
Molecular target: HLA-B*08:01
Experiment: IEDB peptide-MHC binding, purified MHC/direct/fluorescence; filed as Kd, often an IC50 or EC50 that approximates it; bounds were set here for any values at or beyond the usual limits of such assays
Settings: source organism: Salmonella enterica subsp. enterica serovar Typhi
attributeMeasured: pKd
One number for each entry, as −log10 of the molar value.

In: Please look up its pKd: RRRQWASCM
Out: 4.86
